So I've got pIC50 readings for full-length human BTK (Homo sapiens (Human)), take a look.
pIC50: −log10 of the molar value.

Before answering, review these 2 worked examples.
| compound | tgt | outcomeMeasure | reported |
| --- | --- | --- | --- |
| CC(C)(C)c1nc(C(=O)NCc2ccc(-c3ccnc4[nH]c(=O)[nH]c34)cc2F)cs1 [Compound 6] | full-length human BTK (Homo sapiens (Human)) | pIC50 | 7.00 to 8.00 |
| CC1(c2noc(C(=O)NCc3ccc(-c4ccnc5[nH]c(=O)[nH]c45)cc3C(F)(F)F)n2)CC1 [Compound 18] | full-length human BTK (Homo sapiens (Human)) | pIC50 | > 8.00 |

From here, focus on the item given below.
Bench note, full-length human BTK (Homo sapiens (Human)): CC(C)(C)c1ccc(C(=O)NCc2ccc(-c3ccnc4[nH]c(=O)[nH]c34)cc2F)cn1 [Compound 8] , pIC50 reads < 6.00
